Below, each of the molecules is paired with its reported pIC50 value.
Species on record: Homo sapiens
Assay summary: Concentration required to reduced U-46619-induced aggregation of human platelet by 50%.(values in parentheses are 95% confidence limits)
Format: functional
A value of pIC50 is the negative decimal logarithm of a concentration given in moles per litre.

Cc1c(C)c2c(c(C(CCCCCC(=O)O)c3ccc(F)cc3)c1O)CCC2=O (stereo not drawn) ... 7.11

pIC50 recorded for this molecule, CC(=O)c1c(C)c(C)c(O)c(C(CCCCCC(=O)O)c2ccc(F)cc2)c1C (stereo not drawn) , is 7.16

pIC50 recorded for this molecule, Cc1c(C)c(CO)c(C)c(C(CCCCCC(=O)O)c2ccc(F)cc2)c1O (stereo not drawn) , is 7.10

* * *

Species on record: Cavia porcellus
Assay summary: Compound was evaluated for inhibition of specific binding of [3H]U-46619 to guinea pig platelet membrane.
Assay type: functional
Result type: pIC50
A value of pIC50 is the negative decimal logarithm of a concentration given in moles per litre.

Guide cases for pIC50, answers given:
Cc1c(C)c2c(c(C(CCCCCC(=O)O)c3ccc(F)cc3)c1O)CCC2=O (stereo not drawn) ... 7.89
CC(=O)c1c(C)c(C)c(O)c(C(CCCCCC(=O)O)c2ccc(F)cc2)c1C (stereo not drawn) ... 7.10

pIC50 recorded for this molecule, Cc1c(C)c(C=O)c(C)c(C(CCCCCC(=O)O)c2ccc(F)cc2)c1O (stereo not drawn) , is 8.36

* * *

Test system: Cavia porcellus
Assay summary: The compound was tested in vivo for the inhibition of U-46619-induced bronchoconstriction in guinea pig, 1 hr after oral administration at a dose of 5 mg/Kg.
Format: functional
Protocol conditions: PIG1, po
Below, each of the compounds is paired with its reported inhibition in vivo at 5 mg/kg value.

Guide cases for inhibition in vivo at 5 mg/kg, answers given:
CC(=O)c1c(C)c(C)c(O)c(C(CCCCCC(=O)O)c2ccc(F)cc2)c1C (stereo unspecified) ... 76%
Cc1c(C)c(C=O)c(C)c(C(CCCCCC(=O)O)c2ccccc2)c1O (stereo unspecified) ... 30%
Cc1c(C)c(C=O)c(C)c(C(CCCCCC(=O)O)c2ccc(F)cc2)c1O (stereo unspecified) ... 84%
Cc1c(C)c2c(c(C(CCCCCC(=O)O)c3ccc(F)cc3)c1O)CCC2=O (stereo unspecified) ... < 95%
Cc1c(O)c(C(CCCCCC(=O)O)c2ccc(F)cc2)c(C)c2c1CC(=O)C2 (stereo unspecified) ... < 42%

We next turn to a different compound, shown below.
inhibition in vivo at 5 mg/kg recorded for this compound, O=C(O)Cc1ccc(CCNS(=O)(=O)c2ccc(Cl)cc2)cc1 , is < 84%

* * *

Species: Homo sapiens
Assay summary: Concentration required to reduced U-46619-induced aggregation of human platelet by 50%
Format: functional
Result type: pIC50
A value of pIC50 is the negative decimal logarithm of a concentration given in moles per litre.

pIC50 recorded for this molecule, Cc1c(O)c(C(CCCCCC(=O)O)c2ccc(F)cc2)c(C)c2c1CCC2 (stereo unspecified) , is 6.51
